# System: HOP-62
# protocol: NCI tumour cell line growth inhibition, 48 h
Active and inactive are the calls of the source. Cut-off read from the data, not from the text of the source: active = GI50 up to about 1.1 µM and inactive = higher.
This listing pairs molecules with measured GI50.
value.type: GI50

INSERT INTO results (molecule, data_value) VALUES
  ('O=c1[nH][nH]c(=S)c(=O)[nH]1', '> 100 µM (inactive)'),
  ('N=C1CCCC1C(=S)SCCC(N)=O (stereo unspecified)', '> 100 µM (inactive)'),
  ('N#Cc1ccc(N2CCOCC2)cc1', '> 100 µM (inactive)'),
  ('COc1cc2nc(-c3ccccc3)cc(O)c2cc1OC', '19 µM (inactive)'),
  ('O=C(O)CCN(CCCCN(CCC(=O)O)CCC(=O)O)CCC(=O)O', '> 100 µM (inactive)'),
  ('C(=N\c1ccc(-c2nc3ccccc3s2)cc1)/c1ccc[nH]1', '12.5 µM (inactive)'),
  ('CCOC(=O)C1=C(O)C(=O)c2ccoc2C1=O', '> 100 µM (inactive)'),
  ('COC(=O)/C=C(/C(=O)OC)C1(C)c2cc(C(=O)OC)c(C(=O)OC)c(N)c2C(=N)N1c1ccccc1 (stereo unspecified)', '86.7 µM (inactive)'),
  ('CC(C)(C)c1cc(C#N)c2c(c1)C(=O)OC2(c1ccccc1)c1ccccc1C#N (stereo unspecified)', '> 100 µM (inactive)'),
  ('O=C1OC(c2ccccc2)(c2ccccc2)CC1CN1CCOCC1 (stereo unspecified)', '> 100 µM (inactive)'),
  ('CCC1(c2ccc(N3C(=O)c4cc(OC)c(OC)cc4C3=O)cc2)CCC(=O)NC1=O (stereo unspecified)', '> 10 µM (inactive)');

====

# GI50 annotations
# System: UACC-62
# protocol: NCI tumour cell line growth inhibition, 48 h
The source made the active and inactive calls. Rule as the data show it: active = GI50 up to about 1.1 µM and inactive = higher.
value.type: GI50

INSERT INTO measurements (molecule, value_type, data_value) VALUES
  ('O=C(/C=C/c1ccccc1Br)c1ccccc1', 'GI50', '11.4 µM (inactive)'),
  ('CCOC(=O)c1cccc(=O)c(C(=O)OCC)c1', 'GI50', '34 µM (inactive)'),
  ('COC(=O)/C=C(/C(=O)OC)C1(C)c2cc(C(=O)OC)c(C(=O)OC)c(N)c2C(=N)N1c1ccccc1 (stereo not given)', 'GI50', '24.6 µM (inactive)'),
  ('COC(=O)[C@@]12CN(C)[C@@H](C(C)(C)C)N1C(=O)OC2c1ccccc1 (stereo not given in full)', 'GI50', '> 100 µM (inactive)'),
  ('Cc1ccc(C)c(NC(=O)C(=O)C(C2C(C)CC(=O)C2CC(=O)O)[N+](=O)[O-])c1 (stereo not given)', 'GI50', '> 100 µM (inactive)');

====

# System: EKVX
# protocol: NCI tumour cell line growth inhibition, 48 h
The source made the active and inactive calls. No stated cut-off is given here; in the data, active = GI50 up to about 1.1 µM and inactive = higher.
Entries and their measured GI50 follow.
value.type: GI50

INSERT INTO results (molecule, data_value) VALUES
  ('N#Cc1ccc(N2CCOCC2)cc1', '> 100 µM (inactive)'),
  ('CC(C)c1c(O[Si](C(C)C)(C(C)C)C(C)C)cc2c(c1O)CC[C@H]1C(C)(C)CCC[C@]21C', '> 100 µM (inactive)'),
  ('c1ccc(C[N+]23CN4CN(CN(C4)C2)C3)cc1', '> 100 µM (inactive)'),
  ('Cc1ccc(C)c2c1CCc1cc3ccccc3nc1-2', '> 100 µM (inactive)'),
  ('O=C1CCCC2=C1CC1=C(CCCC1=O)N2c1ccc(Cl)cc1', '> 100 µM (inactive)'),
  ('CCOC(=O)C12C(=O)CCN1CCc1ccccc1C2C (stereo not given)', '> 100 µM (inactive)'),
  ('CC1(C)CC(=O)C2=C(C1)NC1=C(C2)C(=O)CC(C)(C)C1', '> 100 µM (inactive)'),
  ('CCOC(=O)C(C(=O)OCC)C(NC(=O)Nc1cc(C(F)(F)F)ccc1OC)(C(F)(F)F)C(F)(F)F', '70.3 µM (inactive)'),
  ('O=P(c1ccccc1)(c1ccccc1)N1O[C@@H](c2ccccc2)C=C[C@H]1c1ccccc1', '10.4 µM (inactive)'),
  ('O=C1C2=C(c3ccccc31)C(c1ccc(F)cc1)N1C(=O)CCSC1=N2 (stereo not given)', '> 100 µM (inactive)');
